Measured values drawn from the MegaScale stability set (Tsuboyama et al. 2023) for this set.

Known folding stability dG of a selection of variants
B1: HEEH_KT_rd6_3632 (parent)
chain: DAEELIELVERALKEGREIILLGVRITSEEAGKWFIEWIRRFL

Variants of: B1
ASSAY EXPLANATION: folding stability dG (cDNA display proteolysis); higher = more stable
REPORTED CONDITIONS: PBS, room temperature
Hi! Could you send only the number? It should be in kcal/mol, unit omitted.

Reference set, count: 5
> print(dat)
                             sequence.chain      measurement.name  unit.of.measurement  obs.value
1  DAEELIELVERALKEGREIILLGVRITSEEAGKWFIEWFRRFL [I39F]  folding stability dG             kcal/mol       3.46
2  DAEELIELVERMLKEGREIILLGVRITSEEAGKWFIEWIRRFL [A12M]  folding stability dG             kcal/mol       3.56
3  DAEELIELVERALKEGREITLLGVRITSEEAGKWFIEWIRRFL [I20T]  folding stability dG             kcal/mol       3.73
4  DAEELIELVERALKEGREIILLGVRITSEEAGKWPIEWIRRFL [F35P]  folding stability dG             kcal/mol       2.34
5  DAEELIELVERATKEGREIILLGVRITSEEAGKWFIEWIRRFL [L13T]  folding stability dG             kcal/mol       3.25

// query Complete the entry with folding stability dG for DAEELIELVERALKEGREIILLPVRITSEEAGKWFIEWIRRFL [G23P]
// result 3.28

// query Complete the entry with folding stability dG for DAEELIELVEDALKEGREIILLGVRITSEEAGKWFIEWIRRFL [R11D]
// result 3.28

// query Complete the entry with folding stability dG for DAEELIELVERALKEGREIILLGVRITSEEAGKWFIEWVRRFL [I39V]
// result 3.62

// query Complete the entry with folding stability dG for DAEELIELVERALKEGREIILLGVRITSEEAGKWFIEWIRTFL [R41T]
// result 3.63

// query Complete the entry with folding stability dG for DAEELIELVERALKEGREIILVGVRITSEEAGKWFIEWIRRFL [L22V]
// result 3.3

// query Complete the entry with folding stability dG for DAEELIELVERALKEGREIILLGVRITSEEAHKWFIEWIRRFL [G32H]
// result 3.44
